Assignment: determine reported logP for the given molecules.

Input: Provide measured logP value, entry: CCCCCCCCCC(CCCC)c1ccccc1 (stereo not drawn)
Output: 9.16

Input: Provide measured logP value, entry: CCCCCCCCCC(C)c1ccccc1 (stereo not drawn)
Output: 7.63

Input: Provide measured logP value, entry: CCCCCCCCCCCc1ccccc1
Output: 8.14

Input: Provide measured logP value, entry: CCCCCCCCCC(CC)c1ccccc1 (stereo not drawn)
Output: 8.1

Input: Provide measured logP value, entry: CCCCCCCCC(C)c1ccccc1 (stereo not drawn)
Output: 7.06

Input: Provide measured logP value, entry: CCCCCC(CCCCC)c1ccccc1
Output: 7.45

Input: Provide measured logP value, entry: CCCCCCCCCCCCCc1ccccc1
Output: 9.36

Input: Provide measured logP value, entry: CCCCCCC(CCC)c1ccccc1 (stereo not drawn)
Output: 7

Input: Provide measured logP value, entry: CCCCCCCCC(CCCC)c1ccccc1 (stereo not drawn)
Output: 8.56

Input: Provide measured logP value, entry: CCCCCCCC(CCCCC)c1ccccc1 (stereo not drawn)
Output: 8.56

Input: Provide measured logP value, entry: CCCCCCCC(CCCC)c1ccccc1 (stereo not drawn)
Output: 8.01

Input: Provide measured logP value, entry: CCCCCCCCCCC(CC)c1ccccc1 (stereo not drawn)
Output: 8.65

Input: Provide measured logP value, entry: CCCCCCCCC(CC)c1ccccc1 (stereo not drawn)
Output: 7.53

Input: Provide measured logP value, entry: CCCCCCCC(CC)c1ccccc1 (stereo not drawn)
Output: 7

Input: Provide measured logP value, entry: CCCCCCC(CCCCC)c1ccccc1 (stereo not drawn)
Output: 8.01

Input: Provide measured logP value, entry: CCCCCCCCCCCCc1ccccc1
Output: 8.65

Input: Provide measured logP value, entry: CCCCCCCCCCCC(C)c1ccccc1 (stereo not drawn)
Output: 8.77

Input: Provide measured logP value, entry: CCCCCCCCCCCCCCc1ccccc1
Output: 9.95

Input: Provide measured logP value, entry: CCCCCCCC(CCC)c1ccccc1 (stereo not drawn)
Output: 7.59

Input: Provide measured logP value, entry: CCCCCCC(CCCC)c1ccccc1 (stereo not drawn)
Output: 7.45

Input: Provide measured logP value, entry: CCCCCC(CCCC)c1ccccc1 (stereo not drawn)
Output: 6.9

Input: Provide measured logP value, entry: CCCCCCCCC(CCCCC)c1ccccc1 (stereo not drawn)
Output: 9.16

Input: Provide measured logP value, entry: CCCCCCCCCC(CCC)c1ccccc1 (stereo not drawn)
Output: 8.62

Input: Provide measured logP value, entry: CCCCCCCCCCC(CCC)c1ccccc1 (stereo not drawn)
Output: 9.25

Input: Provide measured logP value, entry: CCCCCCCCCCC(C)c1ccccc1 (stereo not drawn)
Output: 8.19

Input: Provide measured logP value, entry: CCCCCCCCCCCCC(C)c1ccccc1 (stereo not drawn)
Output: 9.29

Input: Provide measured logP value, entry: CCCCCCCCCCCC(CC)c1ccccc1 (stereo not drawn)
Output: 9.29

Input: Provide measured logP value, entry: CCCCCCCCC(CCC)c1ccccc1 (stereo not drawn)
Output: 8.07
